Exercise: state measured growth for each of the compounds provided.
System: UO-31 renal
Experiment: NCI-60 one-dose screen, 48 h (100 = growth as untreated, 0 = no growth, -100 = all killed)
Details: 10 µM unless noted
Description: Growth inhibition of the UO-31 human tumor cell line is measured as a screen for anti-cancer activity. Cells are grown in 96 well plates and exposed to the test compound for 48 hours. Compounds are tested at a single concentration, which is 10^-5 M for most compounds. The reported endpoint is percent growth (GI% or GIPRCNT), where numbers from 0 - 100% represent growth inhibition, and numbers from -100% - 0 represent cell death. For example, a value of 40 represents 60% growth inhibition. […]
Compounds without any hit were thinned out: in the full panel of roughly 83,000, 20% have a hit. Activity calls are given as the source filed them. How the source made its calls: active means growth percent below 10; inactive means the rest.

input: Give the measured growth of "CCCNC(=S)N/N=C(\C)c1ccccn1" .
output: -0.774% (active)

input: Give the measured growth of "COc1cccc(NC(=O)c2c(-c3ccccc3)c(-c3ccccc3)n[nH]c2=O)c1" .
output: 86.7% (inactive)

input: Give the measured growth of COC(=O)C(C)NC1=C(Cl)C(=O)C(NC(C)C(=O)OC)=C(Cl)C1=O (stereo not given) .
output: 89.8% (inactive)

input: Give the measured growth of "O=C(CS)OCC(COC(=O)CS)(COC(=O)CS)COC(=O)CS" .
output: 93.5% (inactive)

input: Give the measured growth of "CC1=NOCC(=O)N1" .
output: 96.5% (inactive)

input: Give the measured growth of "N=C(N)c1ccc(-c2ccc(-c3cc(Cl)cc(Cl)c3)o2)nc1" .
output: -76.6% (active)

input: Give the measured growth of CC1(C)C2CCC(O)(C(=O)O)C1C2 (stereo not given) .
output: 81.9% (inactive)

input: Give the measured growth of "Nc1cccc(S(=O)(=O)c2cccc(N)c2)c1" .
output: 95.8% (inactive)

input: Give the measured growth of "CC[C@H](Nc1nc(N)nc(N)c1Cl)c1nc2cccc(NCc3ccc(C(=O)NO)cc3)c2c(=O)n1-c1ccccc1" .
output: 20.6% (inactive)

input: Give the measured growth of CCN(CC)CCCC(C)N/C(c1cccc(OC)c1)=c1\c(=O)[nH]n(-c2c3ccccc3nc3ccccc23)c(=O)\c1=C(/NC(C)CCCN(CC)CC)c1cccc(OC)c1 (stereo not given) .
output: -48.5% (active)

* * *

Exercise: state measured growth for each of the molecules provided.
System: SNB-75 CNS
Experiment: NCI-60 one-dose screen, 48 h (100 = growth as untreated, 0 = no growth, -100 = all killed)
Conditions: 10 µM unless noted
Compounds without any hit were thinned out: in the full panel of roughly 83,000, 20% have a hit.
Please reply with the bare figure in % and do not write the unit itself.

input: Missing value: growth, SNB-75 CNS, entry COc1cc(NC(C)CCCN)c2ncccc2c1Oc1ccc(Cl)cc1 (centres undefined) . Fill in?
output: 78.7

input: Missing value: growth, SNB-75 CNS, entry "CCCCCCCCCCCCCCCCCC1=NC(C)(C)CN1C(C)(C)CO" . Fill in?
output: -1.88

input: Missing value: growth, SNB-75 CNS, entry "O=c1cc(N2CCOCC2)oc2c(-c3ccc4c(c3)OCCO4)csc12" . Fill in?
output: -16.6

input: Missing value: growth, SNB-75 CNS, entry "O=c1c2sc3ccccc3c2nnn1-c1ccc(F)c(Cl)c1" . Fill in?
output: 39.5

input: Missing value: growth, SNB-75 CNS, entry "O=C(NC1CC1)c1ccc(-c2nc3ccc4[nH]ncc4c3c3c2CCCC3)cc1" . Fill in?
output: -5.58

input: Missing value: growth, SNB-75 CNS, entry "C#CC[C@@H]1C[C@]2(C)[C@H]3CC=C4[C@H]5CC(C)(C)CC[C@]5(C(=O)NCCCCN)CC[C@@]4(C)[C@]3(C)CC[C@H]2C(C)(C)[C@H]1OC(C)=O" . Fill in?
output: -79.9

input: Missing value: growth, SNB-75 CNS, entry "O=C(C=P(c1ccccc1)(c1ccccc1)c1ccccc1)CCl" . Fill in?
output: 7.49

input: Missing value: growth, SNB-75 CNS, entry "CC[C@H](Nc1nc(C)nc(N)c1C#N)c1nc2cccc(NCc3ccc(C(=O)NO)cc3)c2c(=O)n1-c1ccccc1" . Fill in?
output: 7.85

input: Missing value: growth, SNB-75 CNS, entry "N=C(N)c1ccc(-c2ccc(-c3cc(Cl)cc(Cl)c3)o2)nc1" . Fill in?
output: -90.7

Data origin, for the record: PubChem BioAssay (NCI)
